test system: Paenarthrobacter ureafaciens; details: at 0.1 mM
Recorded inhibition by entry
Form entry: enter the amount, then its unit.

# input Recall the reported inhibition of CC(=O)N[C@H]1[C@H]([C@H](O)[C@H](O)CO)OC(C(=O)O)=C[C@@H]1O on Paenarthrobacter ureafaciens and write it down.
# output 95.8%

# input Enter recorded inhibition with Paenarthrobacter ureafaciens for CC(=O)N[C@H]1[C@H]([C@H](O)[C@H](O)CN=[N+]=[N-])OC(C(=O)O)=C[C@@H]1O here.
# output 99.2%

# input Fill in inhibition for CC(=O)N[C@H]1[C@H]([C@H](O)[C@H](O)Cn2cc(C[C@H](N)C(=O)N[C@H](CCC(=O)O)C(N)=O)nn2)OC(C(=O)O)=C[C@@H]1O tested with Paenarthrobacter ureafaciens.
# output 95.7%

Attention now turns to another entry.
# input Report value: inhibition, system: Paenarthrobacter ureafaciens, compound: CC(=O)N[C@H]1[C@H]([C@H](O)[C@H](O)Cn2cc(C[C@H](N)C(=O)O)nn2)OC(C(=O)O)=C[C@@H]1O
# output 42.1%
